Attribution: patent US7510847B2

Biological target: URAT1 (Homo sapiens)
Sequence (Q96S37 1-553): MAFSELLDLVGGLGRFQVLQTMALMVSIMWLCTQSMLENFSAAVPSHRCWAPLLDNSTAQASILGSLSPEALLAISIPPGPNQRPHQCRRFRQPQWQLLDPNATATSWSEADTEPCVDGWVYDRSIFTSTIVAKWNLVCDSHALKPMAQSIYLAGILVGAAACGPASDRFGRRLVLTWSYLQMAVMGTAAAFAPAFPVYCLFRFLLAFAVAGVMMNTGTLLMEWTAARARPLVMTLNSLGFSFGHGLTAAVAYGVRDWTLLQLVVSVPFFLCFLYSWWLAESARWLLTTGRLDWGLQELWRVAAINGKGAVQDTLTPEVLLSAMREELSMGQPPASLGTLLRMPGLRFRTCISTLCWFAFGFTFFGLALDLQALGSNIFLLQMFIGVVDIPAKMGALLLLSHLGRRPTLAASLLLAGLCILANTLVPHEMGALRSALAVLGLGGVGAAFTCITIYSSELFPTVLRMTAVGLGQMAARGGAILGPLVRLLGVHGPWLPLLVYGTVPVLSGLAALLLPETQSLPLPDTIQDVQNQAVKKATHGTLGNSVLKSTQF
Test: uric acid uptake by URAT1 oocytes after preincubation with or pre-injection of organic acids (exchange substrate study)
Format: cell-based
Design: expressed in transfected cells; host or cells: Xenopus laevis oocytes ("platanna") injected with URAT1 cRNA
Conditions: preincubation 1 mM, oocytes injected with URAT1 cRNA, FIG. 6
measured.property: uptake of uric acid after preincubation of oocytes with organic acid

INSERT INTO measurements (molecule, reported_result) VALUES
  ('Nc1ccc(C(=O)NCC(=O)O)cc1', 'not facilitated'),
  ('O=C(O)c1cccnc1', 'significantly increased'),
  ('O=C(O)c1cnccn1', 'significantly increased'),
  ('CC(O)C(=O)O (stereo not shown)', 'not facilitated');
